system: BT-549; test: Cytotoxicity against human BT549 cells at 10 uM after 48 hrs by SRB assay; type: functional; details: BT-549, 48 h, read-out: GI
// reported inhibition of growth at 10 µM for each item listed

Below, 6 compounds whose answers are already recorded.
CHEMICAL STRUCTURE | inhibition of growth at 10 µM
C=CCn1c(C)nc2cc(Nc3nc(N4CCCC4)nc4ccccc34)ccc21 | < 10%
C=CCn1c(C)nc2ccc(Nc3nc(N4CCOCC4)nc4ccccc34)cc21 | < 10%
O=c1[nH]cc(F)c(=O)[nH]1 | 37.8%
C=CCn1c(C)nc2ccc(Nc3nc(N4CCCC4)nc4ccccc34)cc21 | 13.1%
C=CCn1c(C)nc2cc(Nc3nc(N4CCOCC4)nc4ccccc34)ccc21 | < 10%
C=CCn1c(C)nc2cc(Nc3nc(Cl)nc4ccccc34)ccc21 | < 10%

Problem: Dear colleague, please send me the reported inhibition of growth at 10 µM for C=CCn1c(C)nc2ccc(Nc3nc(N4CCN(C)CC4)nc4ccccc34)cc21 when you can.
Solution: 20.7%

Problem: Dear colleague, please send me the reported inhibition of growth at 10 µM for C=CCn1c(C)nc2ccc(Nc3nc(Cl)nc4ccccc34)cc21 when you can.
Solution: < 10%

====

test system: RPMI-8226; experiment: Cytotoxicity against human RPMI8226 cells at 10 uM after 48 hrs by SRB assay; assay type: functional; conditions: RPMI-8226, 48 h, read-out: GI
MEASURED ATTRIBUTE: inhibition of growth at 10 µM

Below, 4 compounds whose answers are already recorded.
COMPOUND | inhibition of growth at 10 µM
C=CCn1c(C)nc2cc(Nc3nc(N4CCOCC4)nc4ccccc34)ccc21 | 13.4%
C=CCn1c(C)nc2cc(Nc3nc(N4CCCC4)nc4ccccc34)ccc21 | 12.2%
C=CCn1c(C)nc2ccc(Nc3nc(Cl)nc4ccccc34)cc21 | 24.7%
C=CCn1c(C)nc2ccc(Nc3nc(N4CCN(C)CC4)nc4ccccc34)cc21 | 28.5%

Problem: Dear colleague, please send me the reported inhibition of growth at 10 µM for C=CCn1c(C)nc2cc(Nc3nc(Cl)nc4ccccc34)ccc21 when you can.
Solution: 22.3%

Problem: Dear colleague, please send me the reported inhibition of growth at 10 µM for O=c1[nH]cc(F)c(=O)[nH]1 [FLUOROURACIL] when you can.
Solution: 41.4%

Problem: Dear colleague, please send me the reported inhibition of growth at 10 µM for C=CCn1c(C)nc2ccc(Nc3nc(N4CCCC4)nc4ccccc34)cc21 when you can.
Solution: 45%

====

test system: SN12C; assay: Cytotoxicity against human SN12C cells at 10 uM after 48 hrs by SRB assay; type: functional; conditions: read-out: GI
// reported inhibition of growth at 10 µM for each item listed

Below, 2 compounds whose answers are already recorded.
COMPOUND | inhibition of growth at 10 µM
C=CCn1c(C)nc2ccc(Nc3nc(N4CCN(C)CC4)nc4ccccc34)cc21 | < 10%
C=CCn1c(C)nc2ccc(Nc3nc(Cl)nc4ccccc34)cc21 | < 10%

We now examine a further compound.
Problem: Dear colleague, please send me the reported inhibition of growth at 10 µM for O=c1[nH]cc(F)c(=O)[nH]1 [FLUOROURACIL] when you can.
Solution: 54%

====

system: HT-29; test: Cytotoxicity against human HT-29 cells at 10 uM after 48 hrs by SRB assay; assay type: functional; details: HT-29, 48 h, read-out: GI
// reported inhibition of growth at 10 µM for each item listed

Below, 3 compounds whose answers are already recorded.
COMPOUND | inhibition of growth at 10 µM
C=CCn1c(C)nc2ccc(Nc3nc(N4CCOCC4)nc4ccccc34)cc21 | 34.7%
C=CCn1c(C)nc2ccc(Nc3nc(N4CCCC4)nc4ccccc34)cc21 | 94.3%
C=CCn1c(C)nc2ccc(Nc3nc(N4CCN(C)CC4)nc4ccccc34)cc21 | 42.6%

Problem: Dear colleague, please send me the reported inhibition of growth at 10 µM for O=c1[nH]cc(F)c(=O)[nH]1 [FLUOROURACIL] when you can.
Solution: 27.1%

Problem: Dear colleague, please send me the reported inhibition of growth at 10 µM for C=CCn1c(C)nc2cc(Nc3nc(Cl)nc4ccccc34)ccc21 when you can.
Solution: < 10%

Problem: Dear colleague, please send me the reported inhibition of growth at 10 µM for C=CCn1c(C)nc2cc(Nc3nc(N4CCOCC4)nc4ccccc34)ccc21 when you can.
Solution: < 10%

Problem: Dear colleague, please send me the reported inhibition of growth at 10 µM for C=CCn1c(C)nc2ccc(Nc3nc(Cl)nc4ccccc34)cc21 when you can.
Solution: < 10%

Problem: Dear colleague, please send me the reported inhibition of growth at 10 µM for C=CCn1c(C)nc2cc(Nc3nc(N4CCCC4)nc4ccccc34)ccc21 when you can.
Solution: < 10%

====

test system: COLO 205; assay: Cytotoxicity against human COLO205 cells at 10 uM after 48 hrs by SRB assay; assay type: functional; conditions: COLO 205, 48 h, read-out: GI
// reported inhibition of growth at 10 µM for each item listed

COMPOUND | inhibition of growth at 10 µM
C=CCn1c(C)nc2ccc(Nc3nc(N4CCN(C)CC4)nc4ccccc34)cc21 | 23.6%

We now examine a further compound.
Problem: Dear colleague, please send me the reported inhibition of growth at 10 µM for O=c1[nH]cc(F)c(=O)[nH]1 [FLUOROURACIL] when you can.
Solution: 40.2%

====

// reported inhibition of growth at 10 µM for each item listed
test system: 786-0; experiment: Cytotoxicity against human 786-0 cells at 10 uM after 48 hrs by SRB assay; type: functional; conditions: 786-0, 48 h, read-out: GI

CHEMICAL STRUCTURE | inhibition of growth at 10 µM
C=CCn1c(C)nc2cc(Nc3nc(N4CCOCC4)nc4ccccc34)ccc21 | < 10%
C=CCn1c(C)nc2ccc(Nc3nc(N4CCN(C)CC4)nc4ccccc34)cc21 | < 10%
C=CCn1c(C)nc2cc(Nc3nc(Cl)nc4ccccc34)ccc21 | < 10%

We now examine a further compound.
Problem: Dear colleague, please send me the reported inhibition of growth at 10 µM for C=CCn1c(C)nc2ccc(Nc3nc(N4CCOCC4)nc4ccccc34)cc21 when you can.
Solution: < 10%

====

// reported inhibition of growth at 10 µM for each item listed
tested on: HOP-62; assay: Cytotoxicity against human HOP62 cells at 10 uM after 48 hrs by SRB assay; assay type: functional; conditions: HOP-62, 48 h, read-out: GI

Below, 5 compounds whose answers are already recorded.
COMPOUND | MEASURED ATTRIBUTE | VALUE OBSERVED
C=CCn1c(C)nc2cc(Nc3nc(N4CCCC4)nc4ccccc34)ccc21 | inhibition of growth at 10 µM | < 10%
C=CCn1c(C)nc2cc(Nc3nc(Cl)nc4ccccc34)ccc21 | inhibition of growth at 10 µM | < 10%
O=c1[nH]cc(F)c(=O)[nH]1 [FLUOROURACIL] | inhibition of growth at 10 µM | 47.8%
C=CCn1c(C)nc2ccc(Nc3nc(N4CCN(C)CC4)nc4ccccc34)cc21 | inhibition of growth at 10 µM | 11.3%
C=CCn1c(C)nc2cc(Nc3nc(N4CCOCC4)nc4ccccc34)ccc21 | inhibition of growth at 10 µM | < 10%

We now examine a further compound.
Problem: Dear colleague, please send me the reported inhibition of growth at 10 µM for C=CCn1c(C)nc2ccc(Nc3nc(N4CCOCC4)nc4ccccc34)cc21 when you can.
Solution: < 10%

Origin of values: ChEMBL document CHEMBL2380212
